target: UniProt P0DTD1; test: biochemical; settings: IC50 against SARS-CoV-2 3CL^pro, incubation 3 min
METRIC NAME: IC50

Q: What IC50 value was documented for this compound, O=C1C=CC(=O)c2c(O)ccc(O)c21 [Entry 7, 5,8-Dihydroxy-1,4-naphthoquinone] ?
A: 790 nM

====

target: SARS-CoV-2 3CL^pro (Severe acute respiratory syndrome coronavirus 2); assay: Enzymatic inhibition assay of SARS-CoV-2 3CLpro by FRET; format: biochemical
METRIC NAME: log10(IC50) (log10 of the value in µM)
The base-10 logarithm of IC50, taken with IC50 in µM, is what appears here.

Example entries and their recorded answers appear below.
| MOLECULE | log10(IC50) |
| --- | --- |
| O=C1C=CC(=O)c2c(O)cccc21 [Entry 6, 5-Hydroxy-1,4-naphthoquinone] | 0.61 |
| CC1=CC(=O)c2c(O)cccc2C1=O [Entry 8, 2-Methyl-5-hydroxy-1,4-naphthoquinone] | 0.12 |
| COc1cc(C(=O)NS(=O)(=O)c2ccccc2C)ccc1Cc1cn(C)c2ccc(NC(=O)OC3CCCC3)cc12 [Zafirlukast, reference compound] | 1.67 |
| O=C1C=CC(=O)c2ccccc21 [Entry 2, 1,4-Naphthoquinone] | -0.16 |
| O=NN(CCCl)C(=O)NC1CCCCC1 [Lomustine, reference compound] | 0.77 |

Q: What log10(IC50) value was documented for this molecule, O=C1C=C(Cl)C(=O)c2ccccc21 [Entry 3, 2-Chloro-1,4-naphthoquinone] ?
A: 0.28

Q: What log10(IC50) value was documented for this molecule, O=C1C=CC(=O)c2c(O)ccc(O)c21 [Entry 7, 5,8-Dihydroxy-1,4-naphthoquinone] ?
A: -0.31
